Assay Overview: In vitro pharmacokinetic (metabolic) stability in human whole blood
Format: in vitro ADME
Test Conditions: 5 μM test compound, 37° C., time points 0, 0.5, 1, 4, 6 and 24 hours, LC/MS/MS, percent compound remaining
Observed Property: Half Life

Worked examples follow.
Ask: Output measured Half Life for this item: COCCOCCOCCOc1cccc(C2=N[C@@](C)(C(=O)OC(C)C)CS2)c1O [Example 1]
Reply: 1 to 4 h

Ask: Output measured Half Life for this item: COCCOCCOCCOc1cccc(C2=N[C@@](C)(C(=O)O)CS2)c1OC(=O)C(C)C [Example 6]
Reply: 6 to 24 h

Ask: Output measured Half Life for this item: COCCOCCOCCOc1cccc(C2=N[C@@](C)(C(=O)O)CS2)c1OC(=O)N(C)c1ccccc1 [Example 5]
Reply: 0.5 to 1 h

Ask: Output measured Half Life for this item: COCCOCCOCCOc1cccc(C2=N[C@@](C)(C(=O)OC(C)C)CS2)c1OC(=O)N(C)c1ccccc1 [Example 4]
Reply: >24 h

Ask: Output measured Half Life for this item: COCCOCCOCCOc1cccc(C2=N[C@@](C)(C(=O)O)CS2)c1OC(=O)N1CCCC1 [Example 3]
Reply: 1 to 4 h

Now let's try a different one.
Ask: Output measured Half Life for this item: COCCOCCOCCOc1cccc(C2=N[C@@](C)(C(=O)OC(C)C)CS2)c1OC(=O)N1CCCC1 [Example 2]
Reply: >24 h
